Could you please report measured activity change, negative = inhibition for the items listed next?
# Experiment: inhibitors of IL-1beta-induced GFP signal – cell-based, eGFP reporter, dsRed control, flow cytometry, dry powder, selectivity assay for EBV LMP1 NF-kB inhibitor project, dose response (AID 652046)
# Condition Context: IL-1beta-stimulated NF-kB eGFP reporter/dsRed, flow cytometry, 16 h; at 19.5 µM (top of the series)
Results filed as inconclusive are left out.
Give bare numbers, in %.

Study these solved cases before continuing.
CCNC(=O)C[C@H]1CC[C@@H]2[C@H](COc3ccc(NC(=O)c4cc(C)on4)cc3C(=O)N2C)O1 : 0.718
CNC(=O)C[C@H]1CC[C@@H]2[C@H](COc3ccc(NC(=O)c4cc(C)on4)cc3C(=O)N2C)O1 : -2.16
CN(C)c1ccc2c(c1)[C@@H]1C[C@@H](CC(=O)N3CCc4ccccc4C3)O[C@@H](CO)[C@@H]1O2 : 4.65
CCCNC(=O)C[C@H]1CC[C@@H]2[C@H](COc3ccc(NC(=O)c4cc(C)on4)cc3C(=O)N2C)O1 : 2

// batch mode: one activity change, negative = inhibition value per listed entry
1. COc1ccccc1CNC(=O)C[C@@H]1C[C@H]2c3cc(N(C)C)ccc3O[C@H]2[C@H](CO)O1
2. CN(C)c1ccc2c(c1)[C@@H]1C[C@@H](CC(=O)NCc3ccc4c(c3)OCO4)O[C@@H](CO)[C@@H]1O2
3. COCCNC(=O)C[C@H]1CC[C@@H]2[C@H](COc3ccc(NC(=O)c4cc(C)on4)cc3C(=O)N2C)O1
4. CN(C)c1ccc2c(c1)[C@@H]1C[C@@H](CC(=O)NCc3ccc(Oc4ccccc4)cc3)O[C@@H](CO)[C@@H]1O2

2.93
-8.36
1.68
4.75

###

# Tested on: IL-1beta-stimulated NF-kB eGFP reporter/dsRed, flow cytometry, 16 h
# Experiment: inhibitors of IL-1beta-induced GFP signal – cell-based, eGFP reporter, dsRed control, flow cytometry, dry powder, selectivity assay for EBV LMP1 NF-kB inhibitor project, dose response (AID 652046)
Results filed as inconclusive are left out.
Measured Endpoint: AC35

Study these solved cases before continuing.
O=C(C[C@@H]1C[C@H]2c3cc(NC(=O)NC4CCCC4)ccc3O[C@H]2[C@H](CO)O1)NCc1ccc(Oc2ccccc2)cc1 : 17.1 µM
Nc1ccn([C@@H]2O[C@H](CO)[C@@H](O)C2O)c(=O)n1 (stereo not given in full) : 19.1 µM
CN(C)c1ccc2c(c1)[C@@H]1C[C@@H](CC(=O)NCc3ccccc3F)O[C@@H](CO)[C@@H]1O2 : 20.8 µM
CN(C)c1ccc2c(c1)[C@@H]1C[C@@H](CC(=O)NCc3cc(F)ccc3F)O[C@@H](CO)[C@@H]1O2 : 2.23 µM

Record request: AC35 value, item O=C(C[C@@H]1C[C@H]2c3cc(NC(=O)Nc4ccccc4F)ccc3O[C@H]2[C@H](CO)O1)NCc1ccc(Oc2ccccc2)cc1
16.3 µM

###

# Tested on: IL-1beta-stimulated NF-kB eGFP reporter/dsRed, flow cytometry, 16 h
# Experiment: inhibitors of IL-1beta-induced GFP signal – cell-based, eGFP reporter, dsRed control, flow cytometry, dry powder, selectivity assay for EBV LMP1 NF-kB inhibitor project, dose response (AID 652046)
Inconclusive results are not listed.
Could you please report measured AC35 for the items listed next?

Study these solved cases before continuing.
O=C(Nc1ccc(C(F)(F)F)cc1)Nc1ccc2c(c1)[C@H]1C[C@@H](CC(=O)N3CCc4ccccc4C3)O[C@@H](CO)[C@H]1O2 : 12.7 µM
CN(C)c1ccc2c(c1)[C@@H]1C[C@@H](CC(=O)N3CCOCC3)O[C@@H](CO)[C@@H]1O2 : 2.09 µM
CS(=O)(=O)Nc1ccc2c(c1)[C@@H]1C[C@@H](CC(=O)NCc3ccc(Oc4ccccc4)cc3)O[C@@H](CO)[C@@H]1O2 : 0.664 µM
Cc1cc(C(=O)Nc2ccc3c(c2)C(=O)N(C)[C@@H]2CC[C@H](CC(=O)NC4CCCC4)O[C@H]2CO3)no1 : 9.72 µM
COc1ccccc1[C@]1(C)ON(c2ccccc2C(F)(F)F)C1=O : 10.7 µM
CN1C(=O)c2cc(NC(=O)Nc3ccccc3F)ccc2OC[C@@H]2O[C@@H](CC(=O)NCc3ccc(-c4ccccc4)cc3)CC[C@H]21 : 0.14 µM

Query compound follows.
Record request: AC35 value, item Cc1cc(C(=O)Nc2ccc3c(c2)C(=O)N(C)[C@@H]2CC[C@H](CC(=O)N[C@H](C)c4ccccc4)O[C@H]2CO3)no1
15.9 µM
